Test system: HEp-2
procedure_details: Induction of cell cycle arrest in human Hep2 cells assessed accumulation at G2/M phase at 10 ug/ml incubated for 24 hrs by propidium iodide staining based flow cytometry (reference value: 7.82%)
Type: functional
measured_endpoint: Activity
Write the figure, then the unit, nothing else.

These recorded examples may help you get a feel for the data.
>  <compound>
Cn1cc(C(=O)NC(=S)Nc2cccc(Br)c2)cn1

>  <Activity>
18.43%

$$$$
>  <compound>
Cc1cs/c(=N\C(=O)c2cnn(C)c2)n1-c1ccc(I)cc1

>  <Activity>
9.07%

$$$$
>  <compound>
Cn1cc(C(=O)/N=C2\SCC(C)(O)N2c2ccc(Br)cc2)cn1 (centres undefined)

>  <Activity>
19.88%

$$$$
>  <compound>
Cn1cc(C(=O)NC(=S)Nc2ccccc2Br)cn1

>  <Activity>
10.28%

$$$$
>  <compound>
Cn1cc(C(=O)/N=C2\SCC(C)(O)N2c2ccc(I)cc2)cn1 (centres undefined)

>  <Activity>
14.92%

$$$$

In: Field request: Activity | item: "Cn1cc(C(=O)NC(=S)Nc2ccc(I)cc2)cn1"
Out: 11.98%

In: I'd like to know its Activity. The compound in question is "Cc1cs/c(=N\C(=O)c2cnn(C)c2)n1-c1ccc(Br)cc1"
Out: 7.76%

In: Please look up its Activity: "Cn1cc(C(=O)NC(=S)Nc2ccc(Br)cc2)cn1"
Out: 9.91%

In: Tell me the measured Activity of "Cn1cc(C(=O)NC(=S)Nc2ccccc2I)cn1" , please.
Out: 6.86%
